Please respond with reported pKd for every item in the list.
- experimentalSystem: T1, human SIRP-α v1 (human, UniProt P78324 31-149)
- T1 construct: also called Human v1; Human V1
- T1 sequence (P78324 31-149 limits assumed): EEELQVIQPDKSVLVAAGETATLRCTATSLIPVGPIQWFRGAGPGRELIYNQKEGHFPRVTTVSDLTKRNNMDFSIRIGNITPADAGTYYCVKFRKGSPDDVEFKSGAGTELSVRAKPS
- testProtocol: SPR
Scale: negative log10 of molar concentration, which is what pKd denotes.

antibody 115 (antibody, V domains shown, also called S115) VH: DVQLVESGGGVVRPGESLRLSCAASGFSFSSYAMNWVRQAPGEGLEWVSRINSGGGGTDYAESVKGRFTISRDNSENTLYLQMNSLRAEDTAVYYCAKQYDWNSFFDYWGLGALVTVSS VL: ETVLTQSPATLSVSPGERATLSCRASQTVGSKLAWHQQKPGQAPRLLIYDATNRATGISDRFSGSGSGTDFTLTISSLQTEDSAVYYCQQYYYWPPYRFGGGTKVEIK has a reported pKd of 10.75

Per the records, this binder ( antibody 149 (antibody, V domains shown, also called S149) VH: DVQLVESGGGVVRPGESLRLSCAASGFTFSNFAMNWVRQAPGEGLEWVSLISVTATTYYADSVKGRFTISRDNSKNTLYLQMNSLRAEDTAVYYCAKVTWNNLFDYWGLGTLVTVSS VL: EIVLTQSPGTLSLSPGERATLSCRASQPIDSYLAWYQQKPGQAPRLLIYNTVTRATGIPDRFSGSGSGTDFTLTINRLEPEDFAVYYCQHQYDWPPYIFGGGTKVEIK ) has pKd equal to 9.06
